Hello, the source for this data is paper PMC9835529, in case you need it.

tested on: Candida parapsilosis ATCC 22019; test: Anticandidal broth microdilution (EUCAST EDef 7.1), MIC90; assay type: cell-based; settings: Lodderomyces parapsilosis, ATCC22019, C. parapsilosis ATCC 22019; read-out: MIC90
MEASUREMENT_TYPE: MIC90 (µg/mL)
Number only, in µg/mL; omit the unit.

Reference set, count: 4
COc1ccc(-c2csc(N/N=C/c3cc4cc(OC)ccc4nc3Cl)n2)cc1 = 3.91
COc1ccc2nc(Cl)c(/C=N/Nc3nc(-c4ccc([N+](=O)[O-])cc4)cs3)cc2c1 = 31.2
COc1ccc2nc(Cl)c(C=NNc3nc(-c4ccc(C)cc4)cs3)cc2c1 = 3.91
COc1ccc2nc(Cl)c(/C=N/Nc3nc(-c4cccc([N+](=O)[O-])c4)cs3)cc2c1 = 1.95

Q: Give MIC90 only, for COc1ccc2nc(Cl)c(/C=N/Nc3nc(-c4ccc(C#N)cc4)cs3)cc2c1 , using Candida parapsilosis ATCC 22019 data.
Result: 3.91
